Test system: T47D
Experiment: Antiproliferative activity against human T47D cells assessed as growth inhibition after 48 hrs by PrestoBlue dye based fluorescence assay
Format: functional, cell-based

# chem-smiles, EC50 (µM)
rows = [
    ("CCCCCCCCCCCCCCCc1cccc(O[C@H]2C[C@@H](C(=O)NCC(c3ccccc3)c3ccccc3)N(C(=O)[C@@H](NC(=O)[C@H](C)NC)C(C)(C)C)C2)c1", 9),
]
